MEASURED_QUANTITY: Kd (nM)
// return numeric value only (unit: nM, not printed)

Problem: Could you share what Kd was measured for CNc1ncnn2c(C3CCC(C(=O)O)CC3)nc(-c3cc4cccc(OC5CCOC5)c4[nH]3)c12 (stereo unspecified) , tested on Serine/threonine-protein kinase mTOR (Homo sapiens)?
Result: 204

###

# SYSTEM_UNDER_TEST: Serine/threonine-protein kinase mTOR (Homo sapiens, UniProt P42345)
MEASURED_QUANTITY: IC50 (nM)
// return numeric value only (unit: nM, not printed)

Problem: Quick one: IC50 of COc1cccc2cc(-c3nc(C4CCC(C(=O)O)CC4)n4ncnc(N)c34)[nH]c12 (stereo unspecified) ?
Result: 4
